Give measured t1/2 for each item. Keep answers brief.
Test Protocol: Metabolic stability in rat liver microsomes assessed as half life incubated for 15 mins by high resolution LC/MS analysis
Type: ADME, Microsome
Experimental Conditions: 0.25 h
Kindly answer with a numeric value in min, unit omitted.

Q: Using known records, supply t1/2 for CCc1cccc(CC)c1-n1c(C=C(C)C)c(C(=O)N2CCNCC2C)cc(-c2nc(-c3ccc(Cl)cc3)cs2)c1=O (stereo not given)
Ans: 17

Q: Using known records, supply t1/2 for CCc1cccc(CC)c1-n1c(CC(C)C)c(C(=O)N2CCNCC2)cc(-c2nc(-c3ccc(Cl)cc3)cs2)c1=O
Ans: 17

Q: Using known records, supply t1/2 for CCc1cccc(CC)c1-n1c(C=C(C)C)c(C(=O)N2CCNC(C(=O)O)C2)cc(-c2nc(-c3ccc(Cl)cc3)cs2)c1=O (stereo not given)
Ans: 23

Q: Using known records, supply t1/2 for CCCc1c(C(=O)N2CCNCC2)cc(-c2nc(-c3ccc(Cl)cc3)cs2)c(=O)n1-c1c(CC)cccc1CC
Ans: 27

----------
Give measured IC50 for each item. Keep answers brief.
Assay System: Isocitrate dehydrogenase [NADP] cytoplasmic (Homo sapiens, UniProt O75874, R132C)
Sequence (O75874 2-414 R132C limits assumed): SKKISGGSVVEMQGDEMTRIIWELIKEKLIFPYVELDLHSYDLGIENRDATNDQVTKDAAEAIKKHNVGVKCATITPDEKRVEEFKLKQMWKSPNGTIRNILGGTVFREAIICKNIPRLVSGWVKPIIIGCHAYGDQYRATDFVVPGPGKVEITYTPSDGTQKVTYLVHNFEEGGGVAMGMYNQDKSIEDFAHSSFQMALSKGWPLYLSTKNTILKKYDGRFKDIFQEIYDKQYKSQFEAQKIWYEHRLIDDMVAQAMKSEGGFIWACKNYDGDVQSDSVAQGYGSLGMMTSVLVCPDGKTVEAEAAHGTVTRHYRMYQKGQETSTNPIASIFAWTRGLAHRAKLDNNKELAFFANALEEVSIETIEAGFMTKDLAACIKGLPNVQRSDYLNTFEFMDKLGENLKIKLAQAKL
Test Protocol: Inhibition of IDH1 R132C mutant (unknown origin) assessed as reduction in NADPH consumption using alpha-KG as substrate incubated for 5 mins by diaphorase/resazurin-coupled system
Kindly answer with a numeric value in µM, unit omitted.

Q: State IC50 (Isocitrate dehydrogenase [NADP] cytoplasmic (Homo sapiens, UniProt O75874, R132C)) of CCc1cccc(CC)c1-n1c2c(cc(-c3nc(-c4ccc(Cl)cc4)cs3)c1=O)C(=O)CC(C)(C)C2 .
Ans: 0.24

Q: State IC50 (Isocitrate dehydrogenase [NADP] cytoplasmic (Homo sapiens, UniProt O75874, R132C)) of COC(=O)c1ccsc1-n1c2c(cc(-c3nc(-c4ccc(Cl)cc4)cs3)c1=O)C(=O)CC(C)(C)C2 .
Ans: 0.47

Q: State IC50 (Isocitrate dehydrogenase [NADP] cytoplasmic (Homo sapiens, UniProt O75874, R132C)) of CCc1cccc(CC)c1-n1c(CC2CC2)c(C(=O)N2CCNCC2)cc(-c2nc(-c3ccc(Cl)cc3)cs2)c1=O .
Ans: 0.049

Q: State IC50 (Isocitrate dehydrogenase [NADP] cytoplasmic (Homo sapiens, UniProt O75874, R132C)) of CCc1cccc(CC)c1-n1c(C=C(C)C)c(C(=O)N2CCNC3(CC3)C2)cc(-c2nc(-c3ccc(Cl)cc3)cs2)c1=O .
Ans: 0.048

Q: State IC50 (Isocitrate dehydrogenase [NADP] cytoplasmic (Homo sapiens, UniProt O75874, R132C)) of CCc1cccc(CC)c1-n1c(C)c(C(=O)NCCN)cc(-c2nc(-c3ccc(Cl)cc3)cs2)c1=O .
Ans: 2

Q: State IC50 (Isocitrate dehydrogenase [NADP] cytoplasmic (Homo sapiens, UniProt O75874, R132C)) of CCc1cccc(CC)c1-n1c(C)c(C(=O)NCC(N)=O)cc(-c2nc(-c3ccc(Cl)cc3)cs2)c1=O .
Ans: 3.8

Q: State IC50 (Isocitrate dehydrogenase [NADP] cytoplasmic (Homo sapiens, UniProt O75874, R132C)) of CCc1cccc(CC)c1-n1c(C)c(C(=O)NCCCNC)cc(-c2nc(-c3ccc(Cl)cc3)cs2)c1=O .
Ans: 0.91

----------
Give measured pIC50 for each item. Keep answers brief.
Assay System: Isocitrate dehydrogenase [NADP] cytoplasmic (Homo sapiens, UniProt O75874, R132C)
Test Protocol: Inhibition of IDH1 R132C mutant (unknown origin) assessed as reduction in NADPH consumption using alpha-KG as substrate incubated for 5 mins by diaphorase/resazurin-coupled system
# log scale: pIC50 equals minus log10 of the concentration in mol/L

Q: Using known records, supply pIC50 for CCc1cccc(CC)c1-n1c(C)c(C(=O)NCCO)cc(-c2nc(-c3ccc(Cl)cc3)cs2)c1=O
Ans: 5.70

Q: Using known records, supply pIC50 for CCCc1c(C(=O)N2CCNCC2)cc(-c2nc(-c3ccc(Cl)cc3)cs2)c(=O)n1-c1c(CC)cccc1CC
Ans: 7.00

Q: Using known records, supply pIC50 for CCc1cccc(CC)c1-n1c(C)c(C(=O)N2CCNCC2)cc(-c2nc(-c3ccc(Cl)cc3)cs2)c1=O
Ans: 5.82

Q: Using known records, supply pIC50 for CCc1cccc(C)c1-n1c2c(cc(-c3nc(-c4ccc(Cl)cc4)cs3)c1=O)C(=O)CC(C)(C)C2
Ans: 6.30

Q: Using known records, supply pIC50 for CCc1cccc(Cl)c1-n1c(C=C(C)C)c(C(=O)N2CCNCC2)cc(-c2nc(-c3ccc(Cl)cc3)cs2)c1=O
Ans: 7.26

Q: Using known records, supply pIC50 for CCc1ccccc1-n1c2c(cc(-c3nc(-c4ccc(Cl)cc4)cs3)c1=O)C(=O)CC(C)(C)C2
Ans: 6.06

Q: Using known records, supply pIC50 for CCc1cccc(CC)c1-n1c(CCOC)c(C(=O)N2CCNCC2)cc(-c2nc(-c3ccc(Cl)cc3)cs2)c1=O
Ans: 6.47

Q: Using known records, supply pIC50 for CCc1cccc(CC)c1-n1c(C=C(C)C)c(C(=O)N2CCNC(C(N)=O)C2)cc(-c2nc(-c3ccc(Cl)cc3)cs2)c1=O (stereo unspecified)
Ans: 7.38

Q: Using known records, supply pIC50 for CCc1cccc(CC)c1-n1c(C=C(C)C)c(C(=O)N2CCNC(C(=O)O)C2)cc(-c2nc(-c3ccc(Cl)cc3)cs2)c1=O (stereo unspecified)
Ans: 7.19

Q: Using known records, supply pIC50 for CCCC1CN(C(=O)c2cc(-c3nc(-c4ccc(Cl)cc4)cs3)c(=O)n(-c3c(CC)cccc3CC)c2C=C(C)C)CCN1 (stereo unspecified)
Ans: 7.09

Q: Using known records, supply pIC50 for CCc1cccc(CC)c1-n1c(C=C(C)C)c(C(=O)N2CCNC(C)C2)cc(-c2nc(-c3ccc(Cl)cc3)cs2)c1=O (stereo unspecified)
Ans: 7.34

Q: Using known records, supply pIC50 for CCc1cccc(CC)c1-n1c(CC2CCOC2)c(C(=O)N2CCNCC2)cc(-c2nc(-c3ccc(Cl)cc3)cs2)c1=O (stereo unspecified)
Ans: 6.89

Q: Using known records, supply pIC50 for COc1ccc(OC)c(-n2c3c(cc(-c4nc(-c5ccc(Cl)cc5)cs4)c2=O)C=CC(C)(C)C3)c1
Ans: 5.77

Q: Using known records, supply pIC50 for CCc1cccc(CC)c1-n1c(C=C(C)C)c(C(=O)N2CCNCC2)cc(-c2nc(-c3ccc(Cl)cc3)cs2)c1=O
Ans: 7.24

Q: Using known records, supply pIC50 for CCOc1ccc(OCC)c(-n2c3c(cc(-c4nc(-c5ccc(Cl)cc5)cs4)c2=O)C(=O)CC(C)(C)C3)c1
Ans: 7.19

Q: Using known records, supply pIC50 for CCc1cccc(CC)c1-n1c(C)c(C(=O)NCC(C)C)cc(-c2nc(-c3ccc(Cl)cc3)cs2)c1=O
Ans: 6.09

----------
Assay System: Isocitrate dehydrogenase [NADP] cytoplasmic (Homo sapiens, UniProt O75874, R132H)
Sequence (O75874 2-414 R132H limits assumed): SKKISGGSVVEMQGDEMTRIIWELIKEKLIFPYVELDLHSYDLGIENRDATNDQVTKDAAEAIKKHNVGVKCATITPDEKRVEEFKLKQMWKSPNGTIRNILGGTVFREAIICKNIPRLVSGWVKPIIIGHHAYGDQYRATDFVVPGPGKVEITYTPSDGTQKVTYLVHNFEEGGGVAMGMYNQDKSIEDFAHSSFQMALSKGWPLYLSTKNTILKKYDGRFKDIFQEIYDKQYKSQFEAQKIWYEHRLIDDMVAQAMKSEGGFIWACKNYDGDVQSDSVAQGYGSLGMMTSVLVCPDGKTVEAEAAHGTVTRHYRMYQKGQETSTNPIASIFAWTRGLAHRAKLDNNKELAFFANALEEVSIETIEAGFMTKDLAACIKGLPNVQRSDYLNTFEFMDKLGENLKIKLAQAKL
Test Protocol: Inhibition of IDH1 R132H mutant (unknown origin) assessed as reduction in NADPH consumption using alpha-KG as substrate incubated for 5 mins by diaphorase/resazurin-coupled system
Measured Quantity: IC50

Q: Using known records, supply IC50 for CCc1cccc(CC)c1-n1c(C)c(C(=O)N2CCNCC2)cc(-c2nc(-c3ccc(Cl)cc3)cs2)c1=O
Ans: 210 nM

Q: Using known records, supply IC50 for COc1cccc(C)c1-n1c2c(cc(-c3nc(-c4ccc(Cl)cc4)cs3)c1=O)C(=O)CC(C)(C)C2
Ans: 2100 nM

Q: Using known records, supply IC50 for CC1(C)CC(=O)c2cc(-c3nc(-c4ccc(Cl)cc4)cs3)c(=O)n(-c3ccccc3OC(F)(F)F)c2C1
Ans: 570 nM

Q: Using known records, supply IC50 for CCCc1c(C(=O)N2CCNCC2)cc(-c2nc(-c3ccc(Cl)cc3)cs2)c(=O)n1-c1c(CC)cccc1CC
Ans: 75 nM

Q: Using known records, supply IC50 for CCc1cccc(CC)c1-n1c(C=C(C)C)c(C(=O)N2CCNCC2C)cc(-c2nc(-c3ccc(Cl)cc3)cs2)c1=O (configuration not stated)
Ans: 39 nM

Q: Using known records, supply IC50 for CCc1cccc(CC)c1-n1c(C)c(C(=O)NCc2ccccc2)cc(-c2nc(-c3ccc(Cl)cc3)cs2)c1=O
Ans: > 38000 nM

Q: Using known records, supply IC50 for CCc1cccc(CC)c1-n1c(CCOC)c(C(=O)N2CCNCC2)cc(-c2nc(-c3ccc(Cl)cc3)cs2)c1=O
Ans: 140 nM

Q: Using known records, supply IC50 for CCc1cccc(CC)c1-n1c(C)c(C(=O)NC(C)C)cc(-c2nc(-c3ccc(Cl)cc3)cs2)c1=O
Ans: 2800 nM

Q: Using known records, supply IC50 for CCc1cccc(CC)c1-n1c(C)c(C(=O)NC)cc(-c2nc(-c3ccc(Cl)cc3)cs2)c1=O
Ans: 1500 nM

Q: Using known records, supply IC50 for CC1(C)CC(=O)c2cc(-c3nc(-c4ccc(Cl)cc4)cs3)c(=O)n(-c3sccc3C#N)c2C1
Ans: 260 nM

Q: Using known records, supply IC50 for CCc1cccc(CC)c1-n1c(C)c(C(=O)OC)cc(-c2nc(-c3ccc(Cl)cc3)cs2)c1=O
Ans: > 38000 nM

Q: Using known records, supply IC50 for COC(=O)c1ccsc1-n1c2c(cc(-c3nc(-c4ccc(Cl)cc4)cs3)c1=O)C(=O)CC(C)(C)C2
Ans: 470 nM

Q: Using known records, supply IC50 for CCc1cccc(CC)c1-n1c(C)c(C(=O)N(C)C)cc(-c2nc(-c3ccc(Cl)cc3)cs2)c1=O
Ans: 1200 nM

Q: Using known records, supply IC50 for CCc1cccc(CC)c1-n1c(CCC(F)(F)F)c(C(=O)N2CCNCC2)cc(-c2nc(-c3ccc(Cl)cc3)cs2)c1=O
Ans: 240 nM

Q: Using known records, supply IC50 for COc1ccccc1-n1c2c(cc(-c3nc(-c4ccc(Cl)cc4)cs3)c1=O)C(=O)CC(C)(C)C2
Ans: 2400 nM

Q: Using known records, supply IC50 for CCc1cccc(CC)c1-n1c2c(cc(-c3nc(-c4ccc(Cl)cc4)cs3)c1=O)C(=O)CC(C)(C)C2
Ans: 690 nM

Q: Using known records, supply IC50 for CCc1cccc(CC)c1-n1c(C=C(C)C)c(C(=O)N2CC3(CNC3)C2)cc(-c2nc(-c3ccc(Cl)cc3)cs2)c1=O
Ans: 240 nM
